The reported measurements were obtained from patent US9512114B2.

assay: Compound stability in human liver microsomes; assay type: in vitro ADME; conditions: liver microsomes, pH 7.4; in vivo CLint extrapolated from human liver microsome incubation
# key: entry, value: CLint scaled at 5 μM
Provide the measurement as a number trailed by its unit.

# chemical.smiles, endpoint.result
data = [
    ("CC[C@H](Nc1ncnc(N)c1-c1noc(C)n1)c1cc2cccc(-c3cnn(C)c3)c2c(=O)n1C1CC1", "18.9 mL/min/kg"),
    ("CC[C@H](Nc1ncnc(N)c1-c1nc(C)no1)c1cc2cccc(Cl)c2c(=O)n1-c1ccccc1", "134 mL/min/kg"),
    ("Cc1nnc(-c2c(N)ncnc2N[C@@H](C)c2cc3cccc(Cl)c3c(=O)n2C2CC2)o1", "85.3 mL/min/kg"),
    ("CC[C@H](Nc1ncnc(N)c1-c1nnc(C)o1)c1cc2cccc(Cl)c2c(=O)n1C1CC1", "86.9 mL/min/kg"),
    ("CC[C@H](Nc1ncnc(N)c1-c1nc(C)no1)c1cc2cccc(Cl)c2c(=O)n1C1CC1", "147 mL/min/kg"),
]

### Prompt Given CC[C@H](Nc1ncnc(N)c1-c1nc(C)no1)c1cc2cccc(-c3cnn(C)c3)c2c(=O)n1C1CC1 , respond with its CLint scaled at 5 μM.
### Response 23.4 mL/min/kg

### Prompt Given CCc1noc(-c2c(N)ncnc2N[C@@H](CC)c2cc3cccc(Cl)c3c(=O)n2C2CC2)n1 , respond with its CLint scaled at 5 μM.
### Response 138 mL/min/kg

### Prompt Given C[C@H](Nc1ncnc(N)c1-c1ncn(C)n1)c1cc2cccc(Cl)c2c(=O)n1C1CC1 , respond with its CLint scaled at 5 μM.
### Response 219 mL/min/kg

====

assay: Pharmacokinetic profiles in rats; type: in vivo, rat; details: oral vs iv (iv 1 mg/kg; p.o. generally 5 or 10 mg/kg)
reported.endpoint: F
Provide the measurement as a number trailed by its unit.

# compound, F
records = [
    ("C[C@H](Nc1ncnc(N)c1-c1nnn(C)n1)c1cc2cccc(-c3cnn(C)c3)c2c(=O)n1C1CC1 [Ex. 33]", "163.6%"),
]

### Prompt Given Cc1noc(-c2c(N)ncnc2N[C@@H](C)c2cc3cccc(-c4cnn(C)c4)c3c(=O)n2C2CC2)n1 [Ex. 26] , respond with its F.
### Response 121.0%

### Prompt Given Cc1nnc(-c2c(N)ncnc2N[C@@H](C)c2cc3cccc(Cl)c3c(=O)n2-c2ccccc2)o1 [Ex. 9] , respond with its F.
### Response 66.87%

### Prompt Given Cc1nc(-c2c(N)ncnc2N[C@@H](C)c2cc3cccc(-c4cnn(C)c4)c3c(=O)n2C2CC2)no1 [Ex. 34] , respond with its F.
### Response 96.4%

====

assay: Compound stability in rat liver microsomes; assay type: in vitro ADME; details: liver microsomes, pH 7.4; in vivo CLint extrapolated from rat liver microsome incubation
Grouping rule (CLint scaled at 5 μM): lower band (below 100 mL/min/kg), central band (100 mL/min/kg to below 200 mL/min/kg), upper band (200 mL/min/kg or more)

Example cases with answers are listed next.
# chemical.smiles, assigned.class
data = [
    ("CCCCOC(=O)c1nc(-c2c(N)ncnc2N[C@@H](CC)c2cc3cccc(Cl)c3c(=O)n2C2CC2)nn1C", "central band"),
    ("Cc1noc(-c2c(N)ncnc2N[C@@H](C)c2cc3cccc(Cl)c3c(=O)n2-c2ccccc2)n1", "upper band"),
    ("Cc1nnc(-c2c(N)ncnc2N[C@@H](C)c2cc3cccc(-c4cnn(C)c4)c3c(=O)n2-c2ccccc2)o1", "lower band"),
    ("C[C@H](Nc1ncnc(N)c1-c1nnn(C)n1)c1cc2cccc(-c3cnn(C)c3)c2c(=O)n1-c1ccccc1", "lower band"),
    ("Cc1nnc(-c2c(N)ncnc2N[C@@H](C)c2cc3cccc(Cl)c3c(=O)n2-c2ccccc2)o1", "central band"),
]

### Prompt # classify by CLint scaled at 5 μM band: CC[C@H](Nc1ncnc(N)c1-c1nnc(C)o1)c1cc2cccc(Cl)c2c(=O)n1C1CC1
### Response central band

### Prompt # classify by CLint scaled at 5 μM band: C[C@H](Nc1ncnc(N)c1-c1ncn(C)n1)c1cc2cccc(Cl)c2c(=O)n1C1CC1
### Response central band

### Prompt # classify by CLint scaled at 5 μM band: CC[C@H](Nc1ncnc(N)c1-c1nc(C)no1)c1cc2cccc(F)c2c(=O)n1C1CC1
### Response upper band

### Prompt # classify by CLint scaled at 5 μM band: CC[C@H](Nc1ncnc(N)c1-c1noc(C)n1)c1cc2cccc(Cl)c2c(=O)n1C1CC1
### Response central band

====

test: Pharmacokinetic profiles in rats; type: in vivo, rat; settings: rat, plasma, iv dosing 1 mg/kg
reported.endpoint: half-life (h)
Just the number in h, nothing appended.

# molecule, half-life (h)
measured = [
    ("CC[C@H](Nc1ncnc(N)c1-c1noc(C)n1)c1cc2cccc(F)c2c(=O)n1-c1ccccc1 [Ex. 18]", 0.775),
    ("CC[C@H](Nc1ncnc(N)c1-c1nc(C)no1)c1cc2cccc(-c3cnn(C)c3)c2c(=O)n1C1CC1 [Ex. 32]", 1.49),
    ("CC[C@H](Nc1ncnc(N)c1-c1nnc(C)o1)c1cc2cccc(Cl)c2c(=O)n1C1CC1 [Ex. 10]", 1.44),
]

Kindly review the next molecule as well.
### Prompt Given Cc1noc(-c2c(N)ncnc2N[C@@H](C)c2cc3cccc(Cl)c3c(=O)n2C2CC2)n1 [Ex. 24] , respond with its half-life.
### Response 0.75

====

assay: Pharmacokinetic profiles in rats; type: in vivo, rat; details: rat, plasma, iv dosing 1 mg/kg
reported.endpoint: half-life (h)
Just the number in h, nothing appended.

# molecule, endpoint.unit, half-life
measured = [
    ("CC[C@H](Nc1ncnc(N)c1-c1nc(C)no1)c1cc2cccc(Cl)c2c(=O)n1C1CC1 [Ex. 7]", "h", 2.3),
    ("CC[C@H](Nc1ncnc(N)c1-c1nnn(C)n1)c1cc2cccc(Cl)c2c(=O)n1C1CC1 [Ex. 13]", "h", 1.66),
    ("Cc1noc(-c2c(N)ncnc2N[C@@H](C)c2cc3cccc(Cl)c3c(=O)n2-c2ccccc2)n1 [Ex. 8]", "h", 0.92),
]

Kindly review the next molecule as well.
### Prompt Given Cc1nnc(-c2c(N)ncnc2N[C@@H](C)c2cc3cccc(Cl)c3c(=O)n2-c2ccccc2)o1 [Ex. 9] , respond with its half-life.
### Response 1.38

====

experiment: Compound stability in human liver microsomes; type: in vitro ADME; conditions: liver microsomes, pH 7.4; in vivo CLint extrapolated from human liver microsome incubation
reported.endpoint: CLint scaled at 5 μM (mL/min/kg)
Just the number in mL/min/kg, nothing appended.

These recorded examples may help you get a feel for the data.
# chemical.smiles, endpoint.result
rows = [
    ("C[C@H](Nc1ncnc(N)c1-c1nnn(C)n1)c1cc2cccc(-c3cnn(C)c3)c2c(=O)n1C1CC1", 28.4),
    ("Cc1nnc(-c2c(N)ncnc2N[C@@H](C)c2cc3cccc(-c4cnn(C)c4)c3c(=O)n2-c2ccccc2)o1", 15.5),
    ("CC[C@H](Nc1ncnc(N)c1-c1nnc(C)o1)c1cc2cccc(Cl)c2c(=O)n1-c1ccccc1", 29.2),
    ("C[C@H](Nc1ncnc(N)c1-c1nnn(C)n1)c1cc2cccc(-c3cnn(C)c3)c2c(=O)n1-c1ccccc1", 19),
    ("Cc1noc(-c2c(N)ncnc2N[C@@H](C)c2cc3cccc(Cl)c3c(=O)n2C2CC2)n1", 114),
]

### Prompt Given CC[C@H](Nc1ncnc(N)c1-c1ncn(C)n1)c1cc2cccc(Cl)c2c(=O)n1C1CC1 , respond with its CLint scaled at 5 μM.
### Response 251

### Prompt Given Cc1nnc(-c2c(N)ncnc2N[C@@H](C)c2cc3cccc(Cl)c3c(=O)n2-c2ccccc2)o1 , respond with its CLint scaled at 5 μM.
### Response 83.7

### Prompt Given Cc1nnc(-c2c(N)ncnc2N[C@@H](C)c2cc3cccc(-c4cnn(C)c4)c3c(=O)n2C2CC2)o1 , respond with its CLint scaled at 5 μM.
### Response 28.1

====

assay: Pharmacokinetic profiles in monkeys; type: in vivo; settings: plasma; Monkey, iv dosing 1 mg/kg; read-out: Vss
reported.endpoint: Vd

# chemical.smiles, Vd
data = [
    ("Cc1nnc(-c2c(N)ncnc2N[C@@H](C)c2cc3cccc(Cl)c3c(=O)n2-c2ccccc2)o1", "1.17 L/kg"),
]

Kindly review the next molecule as well.
### Prompt Given Cc1noc(-c2c(N)ncnc2N[C@@H](C)c2cc3cccc(Cl)c3c(=O)n2-c2ccccc2)n1 , respond with its Vd.
### Response 1.2 L/kg

====

test: Pharmacokinetic profiles in rats; assay type: in vivo, rat; details: iv dosing 1 mg/kg
# key: entry, value: Cl/F
Just the number in mL/min/kg, nothing appended.

These recorded examples may help you get a feel for the data.
# chemical.smiles, endpoint.unit, Cl/F
records = [
    ("CC[C@H](Nc1ncnc(N)c1-c1nnn(C)n1)c1cc2cccc(Cl)c2c(=O)n1C1CC1", "mL/min/kg", 36.2),
    ("CC[C@H](Nc1ncnc(N)c1-c1nc(C)no1)c1cc2cccc(F)c2c(=O)n1C1CC1", "mL/min/kg", 93),
    ("CC[C@H](Nc1ncnc(N)c1-c1nnc(C)o1)c1cc2cccc(Cl)c2c(=O)n1C1CC1", "mL/min/kg", 50),
    ("C[C@H](Nc1ncnc(N)c1-c1nnn(C)n1)c1cc2cccc(Cl)c2c(=O)n1-c1ccccc1", "mL/min/kg", 22.7),
]

### Prompt Given CC[C@H](Nc1ncnc(N)c1-c1nc(C)no1)c1cc2cccc(-c3cnn(C)c3)c2c(=O)n1C1CC1 , respond with its Cl/F.
### Response 24.3

### Prompt Given C[C@H](Nc1ncnc(N)c1-c1nnn(C)n1)c1cc2cccc(-c3cnn(C)c3)c2c(=O)n1-c1ccccc1 , respond with its Cl/F.
### Response 10

### Prompt Given CC[C@H](Nc1ncnc(N)c1-c1nnc(C)o1)c1cc2cccc(Cl)c2c(=O)n1-c1ccccc1 , respond with its Cl/F.
### Response 52.2

### Prompt Given Cc1noc(-c2c(N)ncnc2N[C@@H](C)c2cc3cccc(Cl)c3c(=O)n2C2CC2)n1 , respond with its Cl/F.
### Response 120

### Prompt Given Cc1noc(-c2c(N)ncnc2N[C@@H](C)c2cc3cccc(-c4cnn(C)c4)c3c(=O)n2C2CC2)n1 , respond with its Cl/F.
### Response 50.3
